# Test system: Tph1
# measurement-notes: Relative gene expression in neural differentiation culture of murine embryonic stem cells (ES-D3), microarray
# measurement-parameters: exposed from day 3, harvested day 4 (24 h exposure); ratio to reference value; concentration coded in label (L low, H high, Table 3)
For each entry below, report its relative expression value Tph1 value.

Ask: Answer with the recorded relative expression value Tph1 for the compound listed here: O=C1NC(=O)C(c2ccccc2)(c2ccccc2)N1 [pheL, Phenytoin]
Result: 0.817

Ask: Answer with the recorded relative expression value Tph1 for the compound listed here: NC(=O)N1c2ccccc2C=Cc2ccccc21 [cbzL, Carbamazepine]
Result: 0.945

Ask: Answer with the recorded relative expression value Tph1 for the compound listed here: CCCC(CCC)C(=O)O [VpaL, Valproic acid]
Result: 0.944

Ask: Answer with the recorded relative expression value Tph1 for the compound listed here: CC=O [aceL, Acetaldehyde]
Result: 0.891

Origin of the recorded values: patent US9790545B2
